- System: Danio rerio Tg(wt1b:EGFP) embryo, pronephros
- Method summary: glomerular width (mean of left and right), fold change vs DMSO control; higher = wider glomerulus
- Condition notes: 25 µM; exposure: 24-48 hpf
Counter-ions that a name gives are not always drawn.
Label Y when glomerular width is at or above 1; anything below gets N.

Worked examples follow.
INSERT INTO assay_data (compound, label_class) VALUES
  ('CCCCC1=NC2(CCCC2)C(=O)N1Cc1ccc(-c2ccccc2-c2nnn[nH]2)cc1', 'N'),
  ('CC(=O)CC(c1ccccc1)c1c(O)c2ccccc2oc1=O (stereo not drawn)', 'N'),
  ('CCC(NC(C)C)C(O)c1ccc(O)c(O)c1 (stereo not drawn) [Isoetharine mesylate salt]', 'Y'),
  ('CCN(CC)CCNC(=O)c1cc(Br)c(N)cc1OC [Bromopride]', 'Y'),
  ('CCN1CCC[C@H]1CNC(=O)c1c(O)c(Cl)cc(Cl)c1OC [Raclopride]', 'N');

q: Dear colleague, could you confirm whether `CN(c1nccc(=O)[nH]1)C1CCN(c2nc3ccccc3n2Cc2ccc(F)cc2)CC1` has glomerular width at or above 1?
a: Y

q: Determine whether this compound has glomerular width no lower than 1: Cc1ccccc1C(OCCN(C)C)c1ccccc1 (stereo not drawn) [Orphenadrine hydrochloride]
a: Y

q: Record COCC1=C(C(=O)OC(C)OC(=O)OC(C)C)N2C(=O)[C@@H](NC(=O)/C(=N\OC)c3csc(N)n3)[C@H]2SC1 (stereo partly drawn) ; criterion: glomerular width no lower than 1. Met?
a: N

* * *

Parameter pronephric angle neck segment: see the listing below.
- Tested on: Danio rerio Tg(wt1b:EGFP) embryo, pronephros
- Method summary: pronephric angle neck segment to proximal convoluted tubule (mean of left and right), fold change vs DMSO control; higher = larger pronephric angle
- Condition notes: 25 µM; exposure: 24-48 hpf
Where a name gives a salt, the structure may show the parent alone.
Give the figure by itself; no unit, no explanation.

q: Requested read-out: pronephric angle neck segment. Entry: CNCC[C@@H](Oc1cccc2ccccc12)c1cccs1 [(R)-Duloxetine hydrochloride]
a: 0.986

q: Name the reported pronephric angle neck segment value associated with the molecule `COc1ccc(NS(=O)(=O)c2ccc(N)cc2)nn1`
a: 1.01

q: For the molecule C[N+]1(C)CCC(=C(c2ccccc2)c2ccccc2)CC1 [Diphemanil methylsulfate] , what pronephric angle neck segment is on record?
a: 1.02

q: I would be grateful if you could share the reported pronephric angle neck segment for O=C(OCCOCCO)c1ccccc1Nc1cccc(C(F)(F)F)c1 [Etofenamate] .
a: 1.75

q: For the molecule `S=c1[nH]cnc2nc[nH]c12` , what pronephric angle neck segment is on record?
a: 0.992

* * *

Recorded fraction of imaged embryos annotated as normal kidney by entry
- System: Danio rerio Tg(wt1b:EGFP) embryo, pronephros
- Method summary: fraction of imaged embryos annotated as normal kidney; higher = less nephrotoxic; extreme values may be limits of the assay
- Condition notes: 25 µM; exposure: 24-48 hpf
Counter-ions that a name gives are not always drawn.
Please state the value as a number alone, without comment.

Please review the entries below; each comes with its answer.
INSERT INTO results (compound, result_number) VALUES
  ('CC(C)(C)NCC(O)COc1cccc2c1CC(O)C(O)C2 (configuration not stated) [Nadolol]', 0.833),
  ('CCC[C@H](N[C@@H](C)C(=O)N1[C@H](C(=O)O)C[C@@H]2CCCC[C@@H]21)C(=O)OCC [Perindopril]', 0.917);

q: What value of fraction of imaged embryos annotated as normal kidney on Danio rerio Tg(wt1b:EGFP) embryo, pronephros does CC(C)COCC(CN(Cc1ccccc1)c1ccccc1)N1CCCC1 (configuration not stated) [Bepridil hydrochloride] have?
a: 0.818

q: Notebook entry, Danio rerio Tg(wt1b:EGFP) embryo, pronephros assay: fraction of imaged embryos annotated as normal kidney of NC12CC3CC(CC(C3)C1)C2 [Adamantamine fumarate] = ?
a: 0.917

q: Form: Entry = CC1(C)S[C@@H]2[C@H](NC(=O)[C@H](C(=O)O)c3ccsc3)C(=O)N2[C@H]1C(=O)O [Ticarcillin sodium] | System = Danio rerio Tg(wt1b:EGFP) embryo, pronephros | fraction of imaged embryos annotated as normal kidney = ____
a: 0.8

q: Fill in the recorded fraction of imaged embryos annotated as normal kidney for this compound, with Danio rerio Tg(wt1b:EGFP) embryo, pronephros as test system: O=P(O)(O)C(O)(Cn1ccnc1)P(=O)(O)O [Zoledronic acid hydrate]
a: 1

q: Checklist item: fraction of imaged embryos annotated as normal kidney tested on Danio rerio Tg(wt1b:EGFP) embryo, pronephros, entry CC(C)(C(=O)c1cccnc1)c1cccnc1 [Metyrapone] , value?
a: 0.9

q: Field: fraction of imaged embryos annotated as normal kidney (Danio rerio Tg(wt1b:EGFP) embryo, pronephros). Entry: Cn1c(=O)c2c(ncn2CC2OCCO2)n(C)c1=O [Doxofylline]
a: 0.917

q: Notebook entry, Danio rerio Tg(wt1b:EGFP) embryo, pronephros assay: fraction of imaged embryos annotated as normal kidney of CCCCNC(=O)NS(=O)(=O)c1ccc(C)cc1 [Tolbutamide] = ?
a: 0.833

* * *

- Tested on: Danio rerio Tg(wt1b:EGFP) embryo, pronephros
- Method summary: glomerular width (mean of left and right), fold change vs DMSO control; higher = wider glomerulus
- Condition notes: 25 µM; exposure: 24-48 hpf
Counter-ions that a name gives are not always drawn.
Reported glomerular width values are given for each entry in this list.
Write the value as a bare number.

Recorded results for 2 compounds are shown here.
INSERT INTO results (compound, recorded_endpoint, result_number) VALUES
  ('CNC(=C[N+](=O)[O-])NCCSCc1ccc(CN(C)C)o1 [Ranitidine hydrochloride]', 'glomerular width', 0.941),
  ('CN1Cc2c(N)cccc2C(c2ccccc2)C1 (stereo not drawn) [Nomifensine maleate]', 'glomerular width', 1.04);

q: Would you kindly share the measured glomerular width for CNC[C@H](O)[C@@H](O)[C@H](O)[C@H](O)CO [Meglumine] ?
a: 1.03

q: Return reported glomerular width; argument: CCc1c2c(nc3ccc(OC(=O)N4CCC(N5CCCCC5)CC4)cc13)-c1cc3c(c(=O)n1C2)COC(=O)[C@]3(O)CC [Irinotecan hydrochloride trihydrate]
a: 1.02

q: Quick check: glomerular width of Cc1c(OCC(F)(F)F)ccnc1C[S+]([O-])c1nc2ccccc2[nH]1 (stereo not drawn) [Lansoprazole] ?
a: 0.949

q: # query: glomerular width of entry CN1CCc2cccc3c2[C@H]1Cc1ccc(O)c(O)c1-3 [R(-) Apomorphine hydrochloride hemihydrate]
a: 0.954

q: Record request: glomerular width value, item NNCCc1ccccc1 [Phenelzine sulfate]
a: 1.04

q: So what does the record say about glomerular width for N=C(N)NCCN1CCCCCCC1 [Guanethidine sulfate] ?
a: 1.04

q: Endpoint output: glomerular width of CCN(CC)C(C)CN1c2ccccc2Sc2ccccc21 (stereo not drawn) [Ethopropazine hydrochloride] . Value?
a: 1.03

q: Sample N=C(N)NCc1cccc(I)c1 [Iobenguane sulfate] — what was its glomerular width?
a: 1.02

q: // query glomerular width value for entry CC1CC(OC(=O)c2ccccc2O)CC(C)(C)C1 (stereo not drawn) [Homosalate]
a: 0.878

q: Give the measured glomerular width of CO[C@@]1(NC(=O)C(C(=O)O)c2ccc(O)cc2)C(=O)N2C(C(=O)O)=C(CSc3nnnn3C)CO[C@@H]21 (stereo partly drawn) [Moxalactam disodium salt] .
a: 1.04

q: Would you mind telling me what glomerular width value was observed for CCN1C(=O)NC(c2ccccc2)C1=O (stereo not drawn) [Ethotoin] ?
a: 0.998

q: I would be grateful if you could share the reported glomerular width for CC(=O)O[C@]1(C(C)=O)CC[C@H]2[C@@H]3C=C(C)C4=CC(=O)CC[C@@H]4[C@H]3CC[C@@]21C [Nomegestrol acetate] .
a: 0.953

q: Value lookup for glomerular width; key = CC(C)(C)NCC(O)c1ccc(O)c(CO)c1 (stereo not drawn) [Salbutamol]
a: 1.05

q: Please report the recorded glomerular width for CCOC(=O)[N-]c1c[n+](N2CCOCC2)no1 [Molsidomine] .
a: 0.996

q: What glomerular width value was documented for this compound, COc1ccc2c(c1)N(C[C@H](C)CN(C)C)c1ccccc1S2 [Methotrimeprazine maleat salt] ?
a: 0.993

q: Which glomerular width reading was recorded for the compound CN(C)CCOC1=Cc2ccccc2Sc2ccc(Cl)cc21 [Zotepine] ?
a: 0.983

* * *

- Tested on: Danio rerio Tg(wt1b:EGFP) embryo, pronephros
- Method summary: glomerular width (mean of left and right), fold change vs DMSO control; higher = wider glomerulus
- Condition notes: 25 µM; exposure: 24-48 hpf
Where a name gives a salt, the structure may show the parent alone.
Recorded endpoint: glomerular width
Could you keep your reply to the number by itself?

Completed entries (count: 4):
INSERT INTO measurements (compound, result_number) VALUES
  ('CC(NCCc1ccc(O)cc1)C(O)c1ccc(O)cc1 (stereo not given) [Ritodrine hydrochloride]', 0.952),
  ('CN1C(C(=O)Nc2ccccn2)=C(O)c2sccc2S1(=O)=O [Tenoxicam]', 0.985),
  ('CC(C)NC[C@H](O)COc1ccc(CC(N)=O)cc1 [(S)-(-)-Atenolol]', 0.918),
  ('CN(CCOc1ccc(CC2SC(=O)NC2=O)cc1)c1ccccn1 (stereo not given) [Rosiglitazone Hydrochloride]', 0.964);

// below: glomerular width requested for another compound
q: For the compound O=c1[nH]c(=O)n([C@H]2C[C@H](O)[C@@H](CO)O2)cc1I [Idoxuridine] , what glomerular width is on record?
a: 1.05

These data points were gathered from the supplement of paper PMC7366291.
